SYSTEM: proMMP9(20-445;ΔFnII) (SEQ ID NO:6) (Homo sapiens, UniProt P14780, DEL216-390)
Construct: start methionine (N)
Sequence (P14780 with tags, fused parts or gaps DEL216-390): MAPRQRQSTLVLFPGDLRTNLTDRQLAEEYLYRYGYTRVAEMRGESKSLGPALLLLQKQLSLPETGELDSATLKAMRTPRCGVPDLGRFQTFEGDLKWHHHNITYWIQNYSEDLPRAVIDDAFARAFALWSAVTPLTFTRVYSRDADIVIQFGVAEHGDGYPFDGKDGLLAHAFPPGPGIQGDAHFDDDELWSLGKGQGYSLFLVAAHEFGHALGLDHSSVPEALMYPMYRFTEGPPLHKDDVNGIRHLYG
ASSAY_COMMENT: ThermoFluor binding assay with proMMP9(20-445;ΔFnII)
pKd: −log10 of the molar value.
Classification field: enter t for pKd values not below 7, f for values below it.

Worked cases, answers included:
structure=CC(C)Cc1ccc(C(N)=O)cc1Nc1nc(-c2ccc3c(c2)ncn3C)cs1 label_value=f
structure=CC(C)Oc1ccc(C(N)=O)cc1Nc1nc(-c2ccc3c(c2)ncn3C)cs1 label_value=t
structure=CC(C)Oc1ccc(S(N)(=O)=O)cc1Nc1nc(-c2ccc3[nH]c(N)nc3c2)cs1 label_value=t
structure=COc1cc(C)c(C(N)=O)cc1Nc1nc(-c2ccc3c(c2)ncn3C)cs1 label_value=f
structure=CCn1cnc2cc(-c3csc(Nc4cc(S(N)(=O)=O)ccc4OC(C)C)n3)ccc21 label_value=f
structure=CC(C)Oc1ccc(S(N)(=O)=O)cc1Nc1nc(-c2ccc3sccc3c2)cs1 label_value=f
structure=Cc1nc2ccc(Cl)cn2c1-c1csc(Nc2cc(C(N)=O)ccc2OC(C)C)n1 label_value=f
structure=CCOc1ccc(S(N)(=O)=O)cc1Nc1nc(-n2c(C)nc3ccccc32)cs1 label_value=f

Could you verify whether the entry COc1ccc([N+](=O)[O-])cc1Nc1nc(-c2cnc3ccccn23)cs1 shows pKd of no less than 7?
f

// inclusive: pKd at least 7? input: CCCn1cnc2ccc(-c3csc(Nc4cc(S(N)(=O)=O)ccc4OC(C)C)n3)cc21
f

Given the entry CC(C)Oc1ccc(C(N)=O)cc1Nc1nc(-c2nc3ccccc3n2C)cs1 , answer whether its pKd meets or surpasses 7.
f

I'd appreciate it if you could say whether CC(C)Oc1ccc(S(N)(=O)=O)cc1Nc1nc(-c2ccc3c(c2)nc(CN(C)C)n3C)cs1 has pKd at least equal to 7.
t

Is the recorded value of pKd equal to or greater than 7 for this molecule? CC(C)Oc1ccc(S(N)(=O)=O)cc1Nc1nc(-c2ccc3occc3c2)cs1
f

Given CCn1c(C)nc2cc(-c3csc(Nc4cc(S(N)(=O)=O)ccc4OC(C)C)n3)ccc21 , state whether its pKd is at least 7.
f

----------
SYSTEM: full-length proMMP9(1-707) (SEQ ID NO:1), activation by catalytic MMP3 (Homo sapiens, UniProt P14780, R574P)
Construct: made in house; host or cells: HEK293 (transient, secreted)
ASSAY_COMMENT: proMMP9/MMP3 P126 Activation Assay
Format: biochemical
EXPERIMENTAL_READOUT: log10(IC50) (log10 of the value in nM)
Friendly reminder: values = log10 of IC50, unit nM.

Given the molecule CCCn1cnc2cc(-c3csc(Nc4cc(S(N)(=O)=O)ccc4OC(C)C)n3)ccc21 , what is its reported log10(IC50)?
2.67

Fill blank: measured log10(IC50) of the molecule COc1ccc(S(N)(=O)=O)cc1Nc1nc(-c2ccc3c(c2)ncn3C)cs1 is ____.
2.93

Bench note: what log10(IC50) did COc1cc(C)c(C(N)=O)cc1Nc1nc(-c2ccc3c(c2)ncn3C)cs1 show?
3.36

Entry under review: CC(C)Oc1ccc(S(N)(=O)=O)cc1Nc1nc(-c2ccc3[nH]cnc3c2)cs1 . Reported log10(IC50)?
2.51

What measured log10(IC50) goes with CC(C)Oc1ccc(S(N)(=O)=O)cc1Nc1nc(-c2ccc3c(cnn3C)c2)cs1 ?
2.74

Please look up its log10(IC50): CC(C)Oc1ccc(S(N)(=O)=O)cc1Nc1nc(-c2ccc3c(c2)nc(CN(C)C)n3C)cs1
1.86

Can you share its log10(IC50)? I mean this molecule: CCn1c(C)nc2cc(-c3csc(Nc4cc(S(N)(=O)=O)ccc4OC(C)C)n3)ccc21
2.48

Endpoint output: log10(IC50) of CC(C)Oc1ccc(S(N)(=O)=O)cc1Nc1nc(-c2ccc3occc3c2)cs1 . Value?
3.53

For the molecule CC(C)Oc1ccc(S(N)(=O)=O)cc1Nc1nc(-c2ccc3c(c2)ncn3C)cs1 , what log10(IC50) is on record?
2.18

Using the record for CCCn1cnc2ccc(-c3csc(Nc4cc(S(N)(=O)=O)ccc4OC(C)C)n3)cc21 , report its log10(IC50).
2.66

Which log10(IC50) value belongs to CC(C)Oc1ccc(S(N)(=O)=O)cc1Nc1nc(-c2ccc3[nH]c(=O)[nH]c3c2)cs1 ?
2.23

State the recorded log10(IC50) for this entry: Cc1ccn2c(-c3csc(Nc4cc(C(N)=O)ccc4OC(C)C)n3)c(C)nc2c1
3.26

I have this molecule here, CC(C)Oc1ccc(S(N)(=O)=O)cc1Nc1nc(-c2ccc3c(c2)nc(CN2CCN(C)CC2)n3C)cs1 , and I need its recorded log10(IC50).
1.91

I would be grateful if you could share the reported log10(IC50) for CC(C)Oc1ccc(S(N)(=O)=O)cc1Nc1nc(-c2ccc3c(c2)nc(CO)n3C)cs1 .
2.18

So what does the record say about log10(IC50) for CCOc1ccc(S(N)(=O)=O)cc1Nc1nc(-n2c(C)nc3ccccc32)cs1 ?
4.14

Could you tell me which log10(IC50) is on file for Cn1cnc2cc(-c3csc(Nc4cc(S(N)(=O)=O)ccc4OC(F)(F)F)n3)ccc21 ?
2.93

Item CC(C)Oc1ccc(S(N)(=O)=O)cc1Nc1nc(-c2ccc3c(c2)nc(CN(C)CCN(C)C)n3C)cs1 has what recorded log10(IC50)?
2.30

----------
SYSTEM: full-length proMMP9(1-707) (SEQ ID NO:1), activation by catalytic MMP3 (Homo sapiens, UniProt P14780, R574P)
Construct: made in house; host or cells: HEK293 (transient, secreted)
ASSAY_COMMENT: proMMP9/MMP3 P126 Activation Assay
Type: biochemical
EXPERIMENTAL_READOUT: IC50 (nM)
Just the number in nM, nothing appended.

// IC50 lookup, key: Cc1nc2ccc(-c3csc(Nc4cc(S(N)(=O)=O)ccc4OC(C)C)n3)cc2n1C
240

I have this compound here, Cc1c(-c2csc(Nc3cc(C(N)=O)ccc3OC(C)C)n2)sc2ccccc12 , and I need its recorded IC50.
2500

Entry under review: CCn1cnc2cc(-c3csc(Nc4cc(S(N)(=O)=O)ccc4OC(C)C)n3)ccc21 . Reported IC50?
240

Which IC50 is reported for this compound? COc1ccc(C(N)=O)cc1Nc1nc(-c2ccc3c(c2)ncn3C)cs1
850

Please report the recorded IC50 for CC(C)Oc1ccc(C(N)=O)cc1Nc1nc(-c2ccc3c(cnn3C)c2)cs1 .
350

What value of measured IC50 is listed for CC(C)Oc1ccc(C(N)=O)cc1Nc1nc(-c2ccc3c(c2)ncn3C)cs1 ?
150

Field request: IC50 | item: Cc1nc2cc(-c3csc(Nc4cc(S(N)(=O)=O)ccc4OC(C)C)n3)ccc2n1C
180

Entry under review: CC(C)Oc1ccc(S(N)(=O)=O)cc1Nc1nc(-c2ccc3[nH]c(N)nc3c2)cs1 . Reported IC50?
150

----------
SYSTEM: full-length proMMP9(1-707) (SEQ ID NO:1), activation by catalytic MMP3 (Homo sapiens, UniProt P14780, R574P)
Construct: made in house; host or cells: HEK293 (transient, secreted)
ASSAY_COMMENT: proMMP9/MMP3 P126 Activation Assay
Format: biochemical
EXPERIMENTAL_READOUT: IC50 (nM)
The response must be a number in nM with no trailing unit.

Solved entries:
structure=CC(C)Oc1ccc(S(N)(=O)=O)cc1Nc1nc(-c2ccc3sccc3c2)cs1 unit_of_measure=nM value=3600
structure=CCn1cnc2ccc(-c3csc(Nc4cc(S(N)(=O)=O)ccc4OC(C)C)n3)cc21 unit_of_measure=nM value=250
structure=Cc1nc2cc(-c3csc(Nc4cc(S(N)(=O)=O)ccc4OC(C)C)n3)ccc2[nH]1 unit_of_measure=nM value=360

What measured IC50 goes with Cc1nc2ccc(Cl)cn2c1-c1csc(Nc2cc(C(N)=O)ccc2OC(C)C)n1 ?
640

----------
SYSTEM: proMMP9(67-444;ΔFnII) (SEQ ID NO:5) (Homo sapiens, UniProt P14780, DEL216-390)
Construct: start methionine (N)
ASSAY_COMMENT: ThermoFluor binding assay with proMMP9(67-444;ΔFnII)
EXPERIMENTAL_READOUT: Kd

Worked examples follow.
structure=CCn1cnc2ccc(-c3csc(Nc4cc(S(N)(=O)=O)ccc4OC(C)C)n3)cc21 experimental_readout=Kd value="0.47 µM"
structure=COc1cc(C)c(C(N)=O)cc1Nc1nc(-c2ccc3c(c2)ncn3C)cs1 experimental_readout=Kd value="7.5 µM"

What value of measured Kd is listed for CC(C)Cc1ccc(C(N)=O)cc1Nc1nc(-c2ccc3c(c2)ncn3C)cs1 ?
6 µM

Which Kd value belongs to COc1ccc(S(N)(=O)=O)cc1Nc1nc(-c2ccc3c(c2)ncn3C)cs1 ?
11 µM

# lookup: Kd of CC(C)Oc1ccc(C(N)=O)cc1Nc1nc(-c2ccc3c(cnn3C)c2)cs1
0.67 µM

Fill in the blank: the reported Kd of Cc1nc2cc(-c3csc(Nc4cc(S(N)(=O)=O)ccc4OC(C)C)n3)ccc2n1C is ____.
1.1 µM

Please report the recorded Kd for Cn1ncc2cc(-c3csc(Nc4cc(C(N)=O)ccc4OC(F)(F)F)n3)ccc21 .
6.7 µM

I'd like to know its Kd. The compound in question is COc1ccc([N+](=O)[O-])cc1Nc1nc(-c2cnc3ccccn23)cs1
> 28 µM

Endpoint output: Kd of Cc1nc2ccc(Cl)cn2c1-c1csc(Nc2cc(C(N)=O)ccc2OC(C)C)n1 . Value?
17 µM

Quick one: Kd for Cc1nc2ccc(-c3csc(Nc4cc(S(N)(=O)=O)ccc4OC(C)C)n3)cc2n1C ?
0.48 µM

Query: Kd; subject: Cn1cnc2cc(-c3csc(Nc4cc(S(N)(=O)=O)ccc4OC(F)(F)F)n3)ccc21
5.3 µM

Given CCn1c(C)nc2cc(-c3csc(Nc4cc(S(N)(=O)=O)ccc4OC(C)C)n3)ccc21 , state its recorded Kd.
0.85 µM

Look up Kd for this compound: Cc1nc2cc(-c3csc(Nc4cc(S(N)(=O)=O)ccc4OC(C)C)n3)ccc2[nH]1
0.44 µM
